subject.of.test: AMA1 on P. falciparum 3D7 strain parasites (Plasmodium falciparum)
method.summary: cell-based or functional assay
measured.attribute: Inhibition (GIA at 1 mg/ml against the 3D7 target strain) (%)
// note: answer is a bare numeric in %

The recorded Inhibition (GIA at 1 mg/ml against the 3D7 target strain) for entry monoclonal antibody 1E10 (antibody, V domains shown, Mouse monoclonal raised against QV, purified from ascites on Protein G; also called mAb 1E10; Monoclonal 1E10) VH: EVQLQESGAELAKPGASVKLSCKASGYTFTNYLMHWIKQRPGQGLEWIGYINHGSGYTNYNQKFIDRATLTADKSSSTAYMQLRSLTYEDSAVYYCVHGYFDVWGTGTTVTVSS VL: QIVLTQSPTIMSASPGEKVTMTCSASSSVTYMHWYQQKPGTSPKRWIYDTSKLASGVPARFSGSGSGTSYSLTISSMEAEDAATYYCHQRSSYPTFGGGTKLEIKR equals 20

Data provenance is patent US20160279221A1.
